Recorded clearance for the following compounds
Assay: Plasma clearance in rat at 1 mg/kg, iv or 3 mg/kg, po
Format: ADME, organism-based
Give the number; mL/min/kg is assumed, so skip it.

C[C@@H]1C(=O)NN=C2COc3cc(C(F)(F)F)c(NC4(C)CNC4)cc3N21    45
Cc1cc2c(cc1NC1CNC1)N1C(=NNC(=O)[C@H]1C)CO2    81.7
C[C@@H]1C(=O)NN=C2COc3cc(-c4ccccc4)c(NC4CNC4)cc3N21    81.7

Continue with the next compound.
Exam item: Find the recorded clearance belonging to C[C@@H]1C(=O)NN=C2COc3cc(C(F)(F)F)c(NC4CNC4)cc3N21 and report it.
Marked response: 35

---

The following compounds have recorded pIC50 on Protein kinase C theta type (Homo sapiens).
Sequence (Q04759 whole entry): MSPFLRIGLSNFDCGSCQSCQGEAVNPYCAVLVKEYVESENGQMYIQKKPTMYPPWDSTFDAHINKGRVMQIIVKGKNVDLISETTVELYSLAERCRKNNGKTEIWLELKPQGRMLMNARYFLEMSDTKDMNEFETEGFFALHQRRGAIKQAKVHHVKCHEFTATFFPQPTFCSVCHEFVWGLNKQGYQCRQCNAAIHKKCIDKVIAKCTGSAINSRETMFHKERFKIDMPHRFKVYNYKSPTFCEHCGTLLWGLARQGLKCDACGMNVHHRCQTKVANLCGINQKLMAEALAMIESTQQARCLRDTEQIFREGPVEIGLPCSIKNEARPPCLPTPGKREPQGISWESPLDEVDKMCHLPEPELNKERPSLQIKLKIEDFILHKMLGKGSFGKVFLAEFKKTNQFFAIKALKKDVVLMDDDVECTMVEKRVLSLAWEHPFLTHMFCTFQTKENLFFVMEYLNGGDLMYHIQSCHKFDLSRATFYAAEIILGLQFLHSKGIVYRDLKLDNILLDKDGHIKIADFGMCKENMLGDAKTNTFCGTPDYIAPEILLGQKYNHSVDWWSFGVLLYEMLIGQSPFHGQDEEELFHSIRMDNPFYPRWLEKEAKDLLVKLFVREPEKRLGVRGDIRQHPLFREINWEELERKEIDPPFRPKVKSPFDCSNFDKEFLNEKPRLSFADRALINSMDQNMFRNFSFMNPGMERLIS
// field semantics: pIC50 = negative decimal log of concentration (mol/L)

Cc1cc2c(cc1NC1CNC1)N1C(=NNC(=O)[C@H]1C)CO2    7.26
O=C1CN2C(=NN1)COc1ccc(NC(=O)C3CNC3)cc12    4.72
C[C@@H]1C(=O)NN=C2COc3cc(-c4ccccc4)c(NC4CNC4)cc3N21    7.31
O=C1CN2C(=NN1)COc1ccccc12    3.34
CC(C)c1cc2c(cc1NC1CNC1)N1C(=NNC(=O)C1C)CO2 (stereo not drawn)    6.89
Cc1cc2c(cc1NC1CNC1)N1C(=NNC(=O)[C@@H]1C)CO2    6.41
O=C1CN2C(=NN1)COc1ccc(NC3CNC3)cc12    5.89

Exam item: Give pIC50 (Protein kinase C theta type (Homo sapiens)) of the following compound: O=C1CN2C(=NN1)COc1ccc(NCC3CCNCC3)cc12
Marked response: 4.51

---

Molecular target: Protein kinase C delta type (Homo sapiens)
Sequence (Q05655 whole entry): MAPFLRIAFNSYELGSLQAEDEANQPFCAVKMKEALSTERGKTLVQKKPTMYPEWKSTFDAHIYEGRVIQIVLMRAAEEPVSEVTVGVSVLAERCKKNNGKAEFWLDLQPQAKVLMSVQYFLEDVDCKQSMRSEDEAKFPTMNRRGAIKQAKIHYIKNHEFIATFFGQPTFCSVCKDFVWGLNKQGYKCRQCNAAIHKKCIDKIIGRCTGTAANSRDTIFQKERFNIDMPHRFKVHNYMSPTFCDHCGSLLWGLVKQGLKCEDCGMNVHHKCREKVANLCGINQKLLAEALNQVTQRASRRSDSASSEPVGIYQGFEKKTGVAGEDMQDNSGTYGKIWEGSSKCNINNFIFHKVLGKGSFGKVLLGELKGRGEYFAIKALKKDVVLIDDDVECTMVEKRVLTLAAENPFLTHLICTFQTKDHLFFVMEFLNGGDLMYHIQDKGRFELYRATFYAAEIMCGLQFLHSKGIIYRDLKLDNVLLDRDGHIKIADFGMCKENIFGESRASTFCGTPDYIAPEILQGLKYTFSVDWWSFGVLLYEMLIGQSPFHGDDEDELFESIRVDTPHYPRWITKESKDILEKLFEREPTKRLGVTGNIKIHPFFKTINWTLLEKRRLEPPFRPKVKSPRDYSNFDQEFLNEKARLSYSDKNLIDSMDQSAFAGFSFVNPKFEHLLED
Assay: Inhibition of human recombinant PKCdelta expressed in Sf21 cells using Bio-cdc peptide substrate and ATP after 60 mins by time-resolved fluorescence in-vitro kinase assay
Reported values of IC50 for individual entries
Number only, in nM; omit the unit.

Exam item: // lookup IC50 for C[C@@H]1C(=O)NN=C2COc3cc(-c4ccccc4)c(NC4CNC4)cc3N21
Marked response: 330

Exam item: Quick check: IC50 of C[C@@H]1C(=O)NN=C2COc3cc(C(F)(F)F)c(NC4CNC4)cc3N21 ?
Marked response: 470

Exam item: Return reported IC50; argument: Cc1cc2c(cc1NC1CNC1)N1C(=NNC(=O)[C@H]1C)CO2
Marked response: 750

---

Assay: AUC (0 to t) in DBA/J mouse model of glucose 6-phosphate isomerase-induced athritis at 30 mg/kg, po dosed twice daily from day 1 to day 17
Type: ADME, organism-based
Set-up: dose 30 mg/kg, route oral
Details: in vivo
Recorded metric: AUC(0-t) (ng·h/mL)
Record the value in ng·h/mL, omitting the unit from your answer.

Exam item: Query (compound): C[C@@H]1C(=O)NN=C2COc3cc(C(F)(F)F)c(NC4(C)CNC4)cc3N21 ; field requested: AUC(0-t)
Marked response: 15100

---

Assay: AUC in rat at 1 mg/kg, iv or 3 mg/kg, po
Format: ADME, organism-based
Settings: plasma
Entries annotated with measured AUC
Number in ng·h/mL, nothing else.

# count of solved cases: 3
C[C@@H]1C(=O)NN=C2COc3cc(-c4ccccc4)c(NC4CNC4)cc3N21    43
C[C@@H]1C(=O)NN=C2COc3cc(C(F)(F)F)c(NC4CNC4)cc3N21    409
C[C@@H]1C(=O)NN=C2COc3cc(C(F)(F)F)c(NC4(C)CNC4)cc3N21    782

Exam item: // AUC lookup, key: Cc1cc2c(cc1NC1CNC1)N1C(=NNC(=O)[C@H]1C)CO2
Marked response: 60

---

Experiment: AUC in mouse at 3 mg/kg, iv or 10 mg/kg, po
Type: ADME, organism-based
Conditions: plasma
Recorded metric: AUC (ng·h/mL)
Hi! Could you send only the number? It should be in ng·h/mL, unit omitted.

C[C@@H]1C(=O)NN=C2COc3cc(C(F)(F)F)c(NC4(C)CNC4)cc3N21    9260

API: the following record is the query input.
Exam item: Which measured AUC value corresponds to C[C@@H]1C(=O)NN=C2COc3cc(C(F)(F)F)c(NC4CNC4)cc3N21 ?
Marked response: 1730

---

Assay: Permeability from apical to basolateral side in MDCK2-MDR1 cells at pH 7.4
Format: ADME, cell-based, Canis lupus familiaris, MDCK-II
Conditions: dog, MDCK-MDR1, pH 7.4; read-out: permeability
Each entry belongs to exactly one class, chosen by where its Papp A→B falls: label 0 (below 0.3 ×10⁻⁶ cm/s), label 1 (0.3 ×10⁻⁶ cm/s to below 0.4 ×10⁻⁶ cm/s), label 2 (0.4 ×10⁻⁶ cm/s or more)

CC(C)c1cc2c(cc1NC1CNC1)N1C(=NNC(=O)C1C)CO2 (stereo not drawn)    label 0
C[C@H]1C(=O)NN=C2COc3cc(-c4ccccc4)c(NC4CNC4)cc3N21    label 0
C[C@@H]1C(=O)NN=C2COc3cc(C(F)(F)F)c(NC4CNC4)cc3N21    label 2
C[C@@H]1C(=O)NN=C2COc3cc(-c4ccccc4)c(NC4CNC4)cc3N21    label 0
CC1C(=O)NN=C2COc3ccc(NC4CNC4)cc3N21 (stereo not drawn)    label 2
Cc1cc2c(cc1NC1CNC1)N1C(=NNC(=O)[C@H]1C)CO2    label 1
Cc1cc2c(cc1NC1CNC1)N1C(=NNC(=O)C1C)CO2 (stereo not drawn)    label 1
CC1C(=O)NN=C2COc3cc(F)c(NC4CNC4)cc3N21 (stereo not drawn)    label 2
Cc1cc2c(cc1NC1CNC1)N1C(=NNC(=O)[C@@H]1C)CO2    label 0
C[C@@H]1C(=O)NN=C2COc3cc(C(F)(F)F)c(NC4(C)CNC4)cc3N21    label 2

Exam item: Which bin, given its Papp A→B, does CC1C(=O)NN=C2COc3cc(C(F)(F)F)c(CC4CNC4)cc3N21 (stereo not drawn) occupy?
Marked response: label 2

Exam item: Returns: class label. Input: CC1C(=O)NN=C2COc3cc(C(F)(F)F)c(NC4CNC4)cc3N21 (stereo not drawn)
Marked response: label 2

Exam item: Sort into band: C[C@H]1C(=O)NN=C2COc3cc(C(F)(F)F)c(NC4CNC4)cc3N21
Marked response: label 0

---

Assay: Half life in rat at 1 mg/kg, iv or 3 mg/kg, po
Assay type: ADME, organism-based
Settings: in vivo
Recorded metric: half-life
Please don't drop the unit; write it after the number.

Answered cases to consult:
Cc1cc2c(cc1NC1CNC1)N1C(=NNC(=O)[C@H]1C)CO2    3 h
C[C@@H]1C(=O)NN=C2COc3cc(C(F)(F)F)c(NC4CNC4)cc3N21    5.5 h
C[C@@H]1C(=O)NN=C2COc3cc(-c4ccccc4)c(NC4CNC4)cc3N21    5.9 h

Continue with the molecule presented below.
Exam item: For C[C@@H]1C(=O)NN=C2COc3cc(C(F)(F)F)c(NC4(C)CNC4)cc3N21 , what is its reported half-life?
Marked response: 4.7 h

---

Assay: Plasma concentration in concanavalin A-induced Balb/c mouse at 30 mg/kg, po dosed 2 hrs before concanavalin A challenge
Type: ADME, organism-based
Parameters: dose 30 mg/kg, route oral
Recorded metric: concentration at 2 h (nM)
Please reply with the bare figure in nM and do not write the unit itself.

Exam item: Name the recorded concentration at 2 h for C[C@@H]1C(=O)NN=C2COc3cc(C(F)(F)F)c(NC4(C)CNC4)cc3N21 .
Marked response: 900

---

Assay: Half life in mouse at 3 mg/kg, iv or 10 mg/kg, po
Type: ADME, organism-based
Conditions: in vivo
Here, each record is paired with measured half-life data.
Reply numerically in h, unit not repeated.

C[C@@H]1C(=O)NN=C2COc3cc(C(F)(F)F)c(NC4CNC4)cc3N21    2.7

Exam item: Look up half-life for this compound: C[C@@H]1C(=O)NN=C2COc3cc(C(F)(F)F)c(NC4(C)CNC4)cc3N21
Marked response: 3.1

---

Assay: Unbound intrinsic clearance in human microsomes
Type: ADME, Microsome
Note to self: use label 1 only for CL free readings below 60 mL/min/kg; a reading exactly at 60 mL/min/kg still gets label 0.

# example entries with known answers
CC(C)c1cc2c(cc1NC1CNC1)N1C(=NNC(=O)C1C)CO2 (stereo not drawn)    label 1
CC1C(=O)NN=C2COc3cc(F)c(NC4CNC4)cc3N21 (stereo not drawn)    label 1
C[C@@H]1C(=O)NN=C2COc3cc(C(F)(F)F)c(NC4CNC4)cc3N21    label 0

Exam item: # strict comparison: is reported CL free < 60 mL/min/kg? input = Cc1cc2c(cc1NC1CNC1)N1C(=NNC(=O)[C@H]1C)CO2
Marked response: label 1

Exam item: Is CL free strictly under 60 mL/min/kg for the entry C[C@@H]1C(=O)NN=C2COc3cc(-c4ccccc4)c(NC4CNC4)cc3N21 ?
Marked response: label 0

Exam item: Criterion: CL free strictly below 60 mL/min/kg. Is it met by CC1C(=O)NN=C2COc3cc(C(F)(F)F)c(NC4CNC4)cc3N21 (stereo not drawn) ?
Marked response: label 1

Exam item: Please state whether CL free is below 60 mL/min/kg for CC1C(=O)NN=C2COc3ccc(NC4CNC4)cc3N21 (stereo not drawn)
Marked response: label 1

Exam item: Dear reviewer, please state whether Cc1cc2c(cc1NC1CNC1)N1C(=NNC(=O)C1C)CO2 (stereo not drawn) has CL free strictly beneath 60 mL/min/kg.
Marked response: label 1
